Experiment description: Permeation kinetics across the in vitro epithelial tissue model
Run conditions: human, pH 5, Papp, [PN159] 25 μM; galantamine 40 mg/mL pH 5.0; calcitonin 1 mg/mL pH 3.5; PTH1-34 1 mg/mL pH 4.5; PYY3-36 1 mg/mL pH 7.0
Endpoint name: Papp at 120 min, 40 mg/mL
Include the unit right after the number.

*Q* Requested field: Papp at 120 min, 40 mg/mL. Item: COc1ccc2c3c1O[C@H]1C[C@@H](O)C=C[C@@]31CCN(C)C2 [Galantamine, galantamine, reference compound]
*A* 5.1 ×10⁻⁶ cm/s

* * *

Experiment description: MTT assay (cell viability), in vitro epithelial tissue model
Format: cell-based
Run conditions: human, pH 5; galantamine lactate 40 mg/ml and PN159 at all concentrations tested (25, 50, 100 μM)
Endpoint name: viability

*Q* Fill blank: measured viability of the molecule CC(C)C[C@H](NC(=O)[C@H](C)NC(=O)[C@H](CCCCN)NC(=O)[C@H](CC(C)C)NC(=O)[C@H](C)NC(=O)[C@H](CC(C)C)NC(=O)[C@H](CCCCN)NC(=O)[C@H](CC(C)C)NC(=O)[C@H](C)NC(=O)[C@H](CC(C)C)NC(=O)[C@@H](N)CCCCN)C(=O)N[C@@H](CCCCN)C(=O)N[C@@H](C)C(=O)N[C@@H](C)C(=O)N[C@@H](CC(C)C)C(=O)N[C@@H](CCCCN)C(=O)N[C@@H](CC(C)C)C(=O)N[C@@H](C)C(N)=O [PN159] is ____.
*A* > 80%

Sourced from patent US20060062758A1
